Measurement Notes: in vitro
Assay Setup: human, hela cells, % viability
Quantity Kind: viability at 28.5 h, 10 µM (%)
Output spec: scalar in %, unitless text.

Query :: Consider the molecule CN(C)CCn1c([C@@H]2CCCO2)cc2cccnc21 [CBK282288] . State its measured viability at 28.5 h, 10 µM.
Result :: 105

Query :: Consider the molecule O=C(CCc1cccnc1)N1CCC(F)CC1 [CBK200275] . State its measured viability at 28.5 h, 10 µM.
Result :: 103

Query :: Consider the molecule O=C(NC(=O)N1CCC2(CC1)NCCc1c2[nH]c2ccc(O)cc12)c1ccccc1 [CBK046936] . State its measured viability at 28.5 h, 10 µM.
Result :: 87.4

Query :: Consider the molecule O=S(=O)(NC[C@H]1C[C@@H]2CC[N@]1C[C@@H]2CN1CCOCC1)c1cccs1 [CBK288759] . State its measured viability at 28.5 h, 10 µM.
Result :: 90.7

Query :: Consider the molecule Nc1nc(Cl)c2ncn([C@@H]3O[C@H](CO)[C@H](O)C3O)c2n1 (some centres unmarked) [CBK201291] . State its measured viability at 28.5 h, 10 µM.
Result :: 81

Query :: Consider the molecule COC(=O)[C@H]1CN(C(=O)c2cscn2)C[C@@H]1c1ccc(F)cc1 [CBK283785] . State its measured viability at 28.5 h, 10 µM.
Result :: 92.3

Query :: Consider the molecule O=C(NC1=NC2CCCCC2N1)c1ccccc1 (centres unmarked) [CBK266354] . State its measured viability at 28.5 h, 10 µM.
Result :: 103

Query :: Consider the molecule CC(C)(C)OC(=O)N1CCC(Oc2ccccc2C#N)C1 (centres unmarked) [CBK003039] . State its measured viability at 28.5 h, 10 µM.
Result :: 84.9

Query :: Consider the molecule Cn1ccnc1CN(Cc1ccccc1)C1CC(C)(C)NC(C)(C)C1 [CBK283177] . State its measured viability at 28.5 h, 10 µM.
Result :: 93.2

Query :: Consider the molecule CCc1nc2c(OCCOC)cccn2c1N(C)C(=O)c1ccccc1F [CBK147722] . State its measured viability at 28.5 h, 10 µM.
Result :: 91.3

Query :: Consider the molecule COc1ccc(C)cc1-n1ccc(C(=O)NC2(C#N)CCSC2)n1 (centres unmarked) [CBK304943] . State its measured viability at 28.5 h, 10 µM.
Result :: 93.1

Query :: Consider the molecule Cc1onc(-c2ccccc2)c1CNC(=O)c1ccc(OC(F)(F)F)cc1 [CBK144080] . State its measured viability at 28.5 h, 10 µM.
Result :: 97.9

Query :: Consider the molecule CC(=O)N1CCC[C@@H](N)[C@@H]1c1ccccc1F [CBK281562] . State its measured viability at 28.5 h, 10 µM.
Result :: 111

Query :: Consider the molecule CN(C)S(=O)(=O)c1ccc(C(=O)Nc2ccc(Br)cc2C(=O)c2ccccc2)cc1 [CBK263243] . State its measured viability at 28.5 h, 10 µM.
Result :: 81.1

Query :: Consider the molecule O=C(O)C1CCCCC1C(=O)NCCc1ccccc1 (centres unmarked) [CBK261707] . State its measured viability at 28.5 h, 10 µM.
Result :: 94

Query :: Consider the molecule OCc1c(-c2ccc(F)cc2)[nH]c2ncccc12 [CBK283328] . State its measured viability at 28.5 h, 10 µM.
Result :: 86.5

Query :: Consider the molecule O=C(Nc1sc2c(c1C(=O)O)CCC2)c1cccs1 [CBK152437] . State its measured viability at 28.5 h, 10 µM.
Result :: 95.2

Query :: Consider the molecule Cn1nc(C2CC2)cc1NS(C)(=O)=O [CBK038148] . State its measured viability at 28.5 h, 10 µM.
Result :: 93.9

Query :: Consider the molecule CN(C)CCNCc1ccc(-c2cccc(C(=O)O)c2)o1 [CBK287250] . State its measured viability at 28.5 h, 10 µM.
Result :: 89.9

Query :: Consider the molecule CSc1ccc(-c2cnc3ncccc3c2N)cc1 [CBK083680] . State its measured viability at 28.5 h, 10 µM.
Result :: 101

Query :: Consider the molecule COc1cccc(-c2cccc(C3CCCN(C(=O)Cc4c[nH]c5ccccc45)C3)n2)c1 (centres unmarked) [CBK286207] . State its measured viability at 28.5 h, 10 µM.
Result :: 114

Query :: Consider the molecule C=CCn1cc(CN2CCc3c(nc(C)[nH]c3=O)C2)c2ccccc21 [CBK283992] . State its measured viability at 28.5 h, 10 µM.
Result :: 97.5

Query :: Consider the molecule CC(C)c1ccc(/C=C/C(=O)NCCC(N)=O)cc1 [CBK149646] . State its measured viability at 28.5 h, 10 µM.
Result :: 81.9

Query :: Consider the molecule CC(=O)Nc1cc(NC(C)=O)c(C)c(C(=O)O)c1 [CBK286623] . State its measured viability at 28.5 h, 10 µM.
Result :: 88.6

Query :: Consider the molecule O=C(CCCN1C(=O)c2cccc3cccc(c23)C1=O)N1CCN(C/C=C/c2ccccc2)CC1 [CBK263300C] . State its measured viability at 28.5 h, 10 µM.
Result :: 103

Query :: Consider the molecule O=C(NC1CC(=O)N(CC(F)(F)F)C1)c1cnc(-c2ccncc2)s1 (centres unmarked) [CBK305546] . State its measured viability at 28.5 h, 10 µM.
Result :: 78

Query :: Consider the molecule O=C(c1ccccc1F)N1CCCC1Cn1c(=O)oc2ccccc21 (centres unmarked) [CBK282926] . State its measured viability at 28.5 h, 10 µM.
Result :: 97.5

Query :: Consider the molecule O=C(c1c[nH]c2ccccc12)C(F)(F)C(F)(F)F [CBK007222] . State its measured viability at 28.5 h, 10 µM.
Result :: 101

Query :: Consider the molecule O=C(O)c1ccc(C(=O)Nc2ccc3c(=O)n4c(nc3c2)/C(=C/c2ccccc2)CC4)cc1 [CBK013048] . State its measured viability at 28.5 h, 10 µM.
Result :: 82.3

Query :: Consider the molecule Cc1cc(/C=N/NC(=O)C(=O)NCc2ccccn2)c(C)n1-c1cccc(Br)c1 [CBK263815] . State its measured viability at 28.5 h, 10 µM.
Result :: 93.2

Query :: Consider the molecule O=C(O)CC1(CC(=O)N2CC[C@H]3NC(=O)N(c4ccc(F)cc4)C(=O)[C@H]32)CCCC1 [CBK289327] . State its measured viability at 28.5 h, 10 µM.
Result :: 97.7

Query :: Consider the molecule Cc1ccc(CN(CCCn2ccnc2)Cc2[nH]cnc2C)s1 [CBK283138] . State its measured viability at 28.5 h, 10 µM.
Result :: 90.3

Query :: Consider the molecule CC(=O)C(C)n1c(=O)c2c(nc3oc(C(C)(C)C)cn32)n(C)c1=O (centres unmarked) [CBK306027] . State its measured viability at 28.5 h, 10 µM.
Result :: 91.1

Query :: Consider the molecule O=C(CNC(=O)c1ccc(OC(F)F)cc1)NCCCn1cccn1 [CBK297789] . State its measured viability at 28.5 h, 10 µM.
Result :: 106

Query :: Consider the molecule CC(C)C[C@@H]1NC(=O)C2(C/C=C/C[C@@H]3COCC[C@@H]3NC1=O)CCN(C(=O)[C@H](CO)NC(=O)OCc1ccccc1)CC2 [CBK292191] . State its measured viability at 28.5 h, 10 µM.
Result :: 102

Query :: Consider the molecule O=S(=O)(Nc1ccc(N2CCNCC2)c2ccccc12)c1ccc(Cl)s1 [CBK003146C] . State its measured viability at 28.5 h, 10 µM.
Result :: 104

Query :: Consider the molecule C/C(=N/OCC(=O)N/N=C/c1sc2ccccc2c1O)c1ccccc1 [CBK262266] . State its measured viability at 28.5 h, 10 µM.
Result :: 96.3

Query :: Consider the molecule O=C(Nc1cc(Oc2cccnc2)cc([N+](=O)[O-])c1)c1cc2nc(-c3ccccc3)cc(-c3ccccc3)n2n1 [CBK262554] . State its measured viability at 28.5 h, 10 µM.
Result :: 87.3
